# Protocol text: Enzymatic Assay for MASP-2: The assay was run at room temperature in an assay buffer containing 20 mM Hepes, pH 7.4, 140 mM NaCl and 0.1% Tween 20. Assay parameters were adjusted such that the assay was linear with respect to time, enzyme and substrate concentrations. Under these optimized assays conditions, IC50 values were equivalent to Ki values, except in a few cases of “tight binding” inhibitors. Cases of “tight binding” or possible “slow binding” inhibitors were handled by the methods described in Copeland R. A. (2013) Evaluation of Enzyme Inhibitors in Drug Discovery. 2nd Ed., John Wiley and Sons, Inc., Chapters 5-7.
Endpoint: Ki

Exam item: Let me know recorded Ki for C[C@H](NC(=O)[C@H]1C[C@H](c2ccccc2)CCN1)C(=O)NCc1ccc(C(=N)N)cc1 , thanks.
Marked response: < 500 nM
